// provenance: paper PMC9482650

Target: Inadl_9, Q8NI35
Sequence (Q8NI35 1530-1615): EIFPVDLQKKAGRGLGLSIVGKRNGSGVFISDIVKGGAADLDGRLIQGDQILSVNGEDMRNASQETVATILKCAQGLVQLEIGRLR
Assay: holdup assay
Design: key: below the threshold = too weak to quantify, mostly under pKd 3.1 to 4
Conditions: plain residues with an end cap or a label only (N-terminal biotin on a linker: ado-ado)
quantity.kind: pKd

Reference set, count: 7
{"binder": "NKSEPFLTWL [WWTR1, Q9GZV5]", "pKd": 4.23}
{"binder": "MLPANYVEAI [NEB, P20929]", "pKd": "below the threshold"}
{"binder": "DYSNLRETDI [ADRA1D, P25100]", "pKd": "below the threshold"}
{"binder": "KKTPVSRSHL [SLC22A3, O75751]", "pKd": "below the threshold"}
{"binder": "QQGLLPHSSC [TYRO3, Q06418]", "pKd": "below the threshold"}
{"binder": "SSSVNVSSNL [CXCR1, P25024]", "pKd": "below the threshold"}
{"binder": "SQDPKKPSRV [CBY2, Q8NA61]", "pKd": 4.08}

Okay, now this binder:
Fill in pKd for record PLATCDETSI [SEMA4F, O95754]
below the threshold
